Measurement record for Epidermal growth factor receptor (Homo sapiens, UniProt P00533); quantity recorded: IC50.
Your answer should be a plain number; it is taken to be in nM.

Before answering, review these 4 worked examples.
substance_smiles=COc1cc(N(C)CCN(C)C)c(NC(=O)/C=C\C(C)C)cc1Nc1ncc(C#N)c(-c2cn(C)c3ccccc23)n1 measure=IC50 measured_number=985
substance_smiles=CCC/C=C\C(=O)Nc1cc(Nc2nccc(-c3cn(C)c4ccccc34)n2)c(OC)cc1N(C)CCN(C)C measure=IC50 measured_number=1500
substance_smiles=C=CC(=O)Nc1cc(Nc2nccc(-c3cn(C)c4ccc(F)cc34)n2)c(OC)cc1N(C)CCN(C)C measure=IC50 measured_number=8.7
substance_smiles=COc1cc(N(C)CCN(C)C)c(NC(=O)C=C(C)C)cc1Nc1nccc(-c2cn(C)c3ccccc23)n1 measure=IC50 measured_number=1280

// moving on: another record for IC50
Give recorded IC50 with Epidermal growth factor receptor (Homo sapiens, UniProt P00533) for the following compound: `CCC/C=C\C(=O)Nc1cc(Nc2ncc(C#N)c(-c3cn(C)c4ccc(F)cc34)n2)c(OC)cc1N(C)CCN(C)C` 1060

---

- Species on record: Homo sapiens
- experiment: Selectivity ratio of IC50 for wild-type EGFR (unknown origin) to IC50 for EGFR T790M/L858R double mutant (unknown origin)
# reported Ratio IC50; entries follow
Simply state the number, no unit and no words.

Before answering, review these 2 worked examples.
substance_smiles=CC/C=C\C(=O)Nc1cc(Nc2ncc(C#N)c(-c3cn(C)c4ccccc34)n2)c(OC)cc1N(C)CCN(C)C measured_number=24.2
substance_smiles=CC/C=C\C(=O)Nc1cc(Nc2nccc(-c3cn(C)c4ccccc34)n2)c(OC)cc1N(C)CCN(C)C measured_number=7.2

Which Ratio IC50 reading was recorded for the compound `CCC/C=C\C(=O)Nc1cc(Nc2ncc(C#N)c(-c3cn(C)c4ccc(F)cc34)n2)c(OC)cc1N(C)CCN(C)C` ? 5.3

Which Ratio IC50 reading was recorded for the compound `CC/C=C\C(=O)Nc1cc(Nc2nc(C)cc(-c3cn(C)c4ccccc34)n2)c(OC)cc1N(C)CCN(C)C` ? 69.7

Which Ratio IC50 reading was recorded for the compound `C=CC(=O)Nc1cc(Nc2nccc(-c3cn(C)c4ccc(F)cc34)n2)c(OC)cc1N(C)CCN(C)C` ? 124

Which Ratio IC50 reading was recorded for the compound `C=CC(=O)Nc1cc(Nc2nc(C)cc(-c3cn(C)c4ccccc34)n2)c(OC)cc1N(C)CCN(C)C` ? 14.5

Which Ratio IC50 reading was recorded for the compound `CCC/C=C\C(=O)Nc1cc(Nc2nccc(-c3cn(C)c4ccccc34)n2)c(OC)cc1N(C)CCN(C)C` ? 7.4

Which Ratio IC50 reading was recorded for the compound `C=CC(=O)Nc1cc(Nc2nc(C)cc(-c3cn(C)c4ccc(F)cc34)n2)c(OC)cc1N(C)CCN(C)C` ? 1.9

Which Ratio IC50 reading was recorded for the compound `C/C=C\C(=O)Nc1cc(Nc2nccc(-c3cn(C)c4ccccc34)n2)c(OC)cc1N(C)CCN(C)C` ? 7.6

Which Ratio IC50 reading was recorded for the compound `COc1cc(N(C)CCN(C)C)c(NC(=O)/C=C\C(C)C)cc1Nc1ncc(C#N)c(-c2cn(C)c3ccc(F)cc23)n1` ? 1.2

The origin of these recorded values is ChEMBL document CHEMBL4411272.
